measurement target: LILRB2 (human (not printed on the sheet), UniProt Q8N423)
Sequence (Q8N423 22-460 limits assumed): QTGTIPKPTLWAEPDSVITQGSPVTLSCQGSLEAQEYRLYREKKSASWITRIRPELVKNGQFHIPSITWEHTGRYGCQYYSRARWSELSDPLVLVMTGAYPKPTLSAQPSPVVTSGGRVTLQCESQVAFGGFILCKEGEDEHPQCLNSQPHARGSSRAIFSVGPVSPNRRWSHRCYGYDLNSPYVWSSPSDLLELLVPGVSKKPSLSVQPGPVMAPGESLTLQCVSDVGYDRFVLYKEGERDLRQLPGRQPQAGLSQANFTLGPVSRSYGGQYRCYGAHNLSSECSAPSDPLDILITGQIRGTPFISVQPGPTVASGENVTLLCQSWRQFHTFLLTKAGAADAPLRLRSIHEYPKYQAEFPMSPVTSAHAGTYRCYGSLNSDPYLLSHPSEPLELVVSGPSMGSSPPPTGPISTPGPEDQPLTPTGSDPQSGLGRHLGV
experiment: LILR reporter cells on coated antibody, GFP positive (%)
test readout: binding result

h193 antibody No. 20 (h193-H3 / h193-K2) (antibody, V domains shown) VH: EVQLVESGGGLVQPGGSLRLSCAASGFSLSSSYWISWVRQAPGKGLEWIGSIDSGSVGITYYATWAKGRFTISRDNSKNTLYLQMNSLRAEDTAVYYCARHGDNWALDLWGQGTLVTVSS VL: DLVMTQSPSTLSASVGDRVTITCQASQSINSWLAWYQQKPGKPPKLLIYKASTLASGVSSRFSGSGSGTEFTLTISSLQPDDVATYYCQHGYIRGDLDNVFGGGTKVEIK = no binding
h193 antibody No. 19 (h193-H3 / h193-K1) (antibody, V domains shown) VH: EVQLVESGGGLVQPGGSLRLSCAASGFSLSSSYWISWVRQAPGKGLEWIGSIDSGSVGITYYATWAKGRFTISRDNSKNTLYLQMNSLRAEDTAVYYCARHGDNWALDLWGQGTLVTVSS VL: DIQMTQSPSTLSASVGDRVTITCQASQSINSWLAWYQQKPGKAPKLLIYKASTLASGVPSRFSGSGSGTEFTLTISSLQPDDFATYYCQHGYIRGDLDNVFGGGTKVEIK = no binding
